EC50 overview
test system: Human immunodeficiency virus 1; test: Effective concentration against HIV-1 strain LAV in human peripheral blood mononuclear (PBM) cells.; assay type: functional, organism-based
Please format your answer as a value with the unit trailing.

# annotated cases, reported EC50 shown
>>> reported_result("Nc1ccn([C@H]2CO[C@H](CO)O2)c(=O)n1")
"1.3 µM"
>>> reported_result("Nc1nc(Cl)nc2c1ncn2[C@@H]1CO[C@H](CO)O1")
"34.7 µM"
>>> reported_result("Nc1nc(Cl)nc2c1ncn2[C@H]1CO[C@H](CO)O1")
"1.27 µM"
>>> reported_result("Nc1ccn([C@@H]2CO[C@H](CO)O2)c(=O)n1 [TROXACITABINE]")
"0.002 µM"
>>> reported_result("Nc1nc(O)c2ncn([C@H]3CO[C@H](CO)O3)c2n1")
"102 µM"
>>> reported_result("Nc1ccn([C@H]2CO[C@@H](CO)O2)c(=O)n1")
"0.016 µM"

Entry `Nc1nc(O)c2ncn([C@@H]3CO[C@H](CO)O3)c2n1` ; assay system Human immunodeficiency virus 1; EC50 recorded at 17.5 µM

Entry `Nc1nc(N)c2ncn([C@H]3CO[C@H](CO)O3)c2n1` ; assay system Human immunodeficiency virus 1; EC50 recorded at 42.1 µM

Entry `Nc1nc(N)c2ncn([C@@H]3CO[C@H](CO)O3)c2n1` ; assay system Human immunodeficiency virus 1; EC50 recorded at 0.014 µM

---

pIC50 overview
tested on: Vero; assay: Cytotoxic effect against vero cells.; type: cell-based; settings: Chlorocebus sabaeus
In textbook form, pIC50 equals minus log to base ten of the concentration in mol/L.

>>> reported_result("Nc1ccn([C@H]2CO[C@H](CO)O2)c(=O)n1")
4.77

Here's the next entry for you.
pIC50 measured on `Nc1ccn([C@@H]2CO[C@H](CO)O2)c(=O)n1` = 7.00

---

tested on: CCRF-CEM; experiment: Cytotoxicity against uninfected PHA-stimulated CEM cells; assay type: cell-based; conditions: Homo sapiens
readout kind: pIC50
In textbook form, pIC50 equals minus log to base ten of the concentration in mol/L.

pIC50 measured on `Nc1ccn([C@H]2CO[C@@H](CO)O2)c(=O)n1` = 4.89
